molecular target: human TLR8 (Homo sapiens (Human)); assay: TLR8 inhibition reporter assay (HEK-Blue, SEAP); conditions: HEK-Blue cells overexpressing human TLR8, R848 15.9 μM stimulation
PROPERTY LABEL: pIC50
To interpret pIC50, take it as minus log10 of a concentration measured in moles per litre.

The examples below pair each entry with its known result.
Cc1cc(-c2[nH]c3ccc(-c4ccc(C(N)=O)nc4)cc3c2C(C)C)cc(C)n1    7.59
COc1ccc(-c2[nH]c3ccc(-c4ccnc(C(=O)N5CCNCC5)c4)cc3c2C(C)C)cc1OC    5.98
Cc1cc(-c2[nH]c3ccc(-c4nnc(C5CCCN(C)C5)o4)cc3c2C(C)C)ccn1 (stereo not shown) [Example 159]    8.74

API: the following record is the query input.
Measured pIC50 (human TLR8 (Homo sapiens (Human))), entry CC(C)c1c(-c2ccnc3n[nH]cc23)[nH]c2ccc(-c3nccs3)cc12 : 7.44

====

target: human TLR7 (Homo sapiens (Human), UniProt Q9NYK1); assay: TLR7 inhibition reporter assay (HEK-Blue, SEAP); conditions: HEK-Blue cells overexpressing human TLR7, gardiquimod 7.5 μM stimulation
Sequence (Q9NYK1 27-1049): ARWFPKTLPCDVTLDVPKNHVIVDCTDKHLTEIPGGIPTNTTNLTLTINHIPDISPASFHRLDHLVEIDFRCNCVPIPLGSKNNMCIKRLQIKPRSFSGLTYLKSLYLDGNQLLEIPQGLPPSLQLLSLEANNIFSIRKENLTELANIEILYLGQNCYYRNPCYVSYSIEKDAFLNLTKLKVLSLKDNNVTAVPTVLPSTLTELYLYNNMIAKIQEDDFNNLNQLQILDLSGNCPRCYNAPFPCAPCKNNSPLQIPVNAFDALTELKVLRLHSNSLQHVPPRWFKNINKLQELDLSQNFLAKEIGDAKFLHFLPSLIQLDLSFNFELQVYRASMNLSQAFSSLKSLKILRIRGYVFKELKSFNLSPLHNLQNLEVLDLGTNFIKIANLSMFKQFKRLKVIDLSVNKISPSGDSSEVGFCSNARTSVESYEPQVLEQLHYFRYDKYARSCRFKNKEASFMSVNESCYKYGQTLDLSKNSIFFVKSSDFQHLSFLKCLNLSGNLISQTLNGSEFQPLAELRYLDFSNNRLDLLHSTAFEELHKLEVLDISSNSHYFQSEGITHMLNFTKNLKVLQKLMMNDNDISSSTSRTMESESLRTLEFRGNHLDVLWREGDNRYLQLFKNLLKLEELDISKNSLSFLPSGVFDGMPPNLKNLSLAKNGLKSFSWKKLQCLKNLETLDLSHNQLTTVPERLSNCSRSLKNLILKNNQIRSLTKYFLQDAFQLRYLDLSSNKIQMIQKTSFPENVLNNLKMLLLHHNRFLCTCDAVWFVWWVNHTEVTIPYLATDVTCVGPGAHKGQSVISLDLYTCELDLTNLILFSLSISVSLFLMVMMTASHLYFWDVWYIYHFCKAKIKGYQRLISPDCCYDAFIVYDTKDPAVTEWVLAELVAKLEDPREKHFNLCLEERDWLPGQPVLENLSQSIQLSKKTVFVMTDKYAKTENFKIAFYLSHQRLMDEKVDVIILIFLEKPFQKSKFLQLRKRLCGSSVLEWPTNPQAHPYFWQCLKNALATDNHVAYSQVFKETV
PROPERTY LABEL: pIC50
To interpret pIC50, take it as minus log10 of a concentration measured in moles per litre.

CNCC(=O)Nc1cnc(-c2ccc3[nH]c(-c4cc(C)nc(C)c4)c(C(C)C)c3c2)cn1    8.00
COCCN(C)Cc1nnc(-c2ccc3[nH]c(-c4ccc(OC)c(OC)c4)c(C(C)C)c3c2)o1    6.97
CC(C)c1c(-c2ccnc3n[nH]cc23)[nH]c2ccc(-c3nnc(CN4CCCC4)o3)cc12    5.96

Form: compound = COc1ccc(-c2[nH]c3ccc(-c4ccc5c(c4)CCNC5)cc3c2C(C)C)cc1OC ; pIC50 = 7.24

====

molecular target: human TLR8 (Homo sapiens (Human), UniProt Q9NR97); assay: TLR8 inhibition reporter assay (HEK-Blue, SEAP); settings: HEK-Blue cells overexpressing human TLR8, R848 15.9 μM stimulation
Sequence (Q9NR97 27-1041): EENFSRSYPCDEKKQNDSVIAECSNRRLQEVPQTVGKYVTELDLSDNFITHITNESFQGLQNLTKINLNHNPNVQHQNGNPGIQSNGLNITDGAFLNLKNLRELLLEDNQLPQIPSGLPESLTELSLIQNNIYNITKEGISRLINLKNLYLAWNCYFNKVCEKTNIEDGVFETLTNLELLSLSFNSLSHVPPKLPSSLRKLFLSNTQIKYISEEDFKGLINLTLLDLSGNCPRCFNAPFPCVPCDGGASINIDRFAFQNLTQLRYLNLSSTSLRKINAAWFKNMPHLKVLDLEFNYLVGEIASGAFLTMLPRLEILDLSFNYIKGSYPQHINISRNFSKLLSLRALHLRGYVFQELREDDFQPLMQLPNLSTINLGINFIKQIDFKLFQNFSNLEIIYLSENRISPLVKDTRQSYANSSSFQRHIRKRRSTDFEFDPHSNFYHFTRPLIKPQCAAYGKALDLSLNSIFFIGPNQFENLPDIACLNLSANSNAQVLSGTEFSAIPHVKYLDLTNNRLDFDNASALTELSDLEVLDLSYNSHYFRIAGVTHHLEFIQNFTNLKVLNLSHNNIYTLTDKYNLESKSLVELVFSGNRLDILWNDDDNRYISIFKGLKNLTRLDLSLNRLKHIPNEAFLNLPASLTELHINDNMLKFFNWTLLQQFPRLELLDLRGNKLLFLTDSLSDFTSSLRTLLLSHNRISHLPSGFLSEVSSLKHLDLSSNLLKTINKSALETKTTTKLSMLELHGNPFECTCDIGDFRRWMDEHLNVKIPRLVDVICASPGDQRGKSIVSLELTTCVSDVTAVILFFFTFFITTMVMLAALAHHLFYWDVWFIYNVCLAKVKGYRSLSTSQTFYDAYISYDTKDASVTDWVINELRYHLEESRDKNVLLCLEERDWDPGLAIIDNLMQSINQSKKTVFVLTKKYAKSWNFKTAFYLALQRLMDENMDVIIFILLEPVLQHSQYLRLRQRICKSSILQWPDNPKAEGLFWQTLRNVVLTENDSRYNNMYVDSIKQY
PROPERTY LABEL: pIC50
To interpret pIC50, take it as minus log10 of a concentration measured in moles per litre.

The examples below pair each entry with its known result.
Cc1cc(-c2[nH]c3ccc(-c4nnc(C5CNCCO5)o4)cc3c2C(C)C)ccn1 (stereo not shown) [Example 70]    8.17
Cc1cc(-c2[nH]c3ccc(-c4ccnc(N5CCNCC5)c4)cc3c2C(C)C)cc(C)n1 [Example 320]    7.07
COc1ccc(-c2[nH]c3ccc(-c4cccc(C(=O)NCC(N)=O)c4)cc3c2CC(F)(F)F)cc1OC [Example 28]    7.03
COc1ccc(-c2[nH]c3ccc(-c4nnc(CN5CCNC(=O)C5)o4)cc3c2C(C)C)cc1OC [Example 120]    6.65
COc1ccc(-c2[nH]c3ccc(-c4nnc(C(=O)N(C)CCc5ccccn5)o4)cc3c2C(C)C)cc1OC [Example 94]    6.65
Cc1cc(-c2[nH]c3ccc(-c4ccc(C(=O)N5CCC(N(C)C)CC5)cc4)cc3c2C(C)C)ccn1 [Example 313]    8.33

Measured pIC50 (human TLR8 (Homo sapiens (Human), UniProt Q9NR97)), entry CNCC(=O)N1CCC(c2nnc(-c3ccc4[nH]c(-c5ccc(OC)c(OC)c5)c(C(C)C)c4c3)o2)CC1 [Example 18] : 8.02

====

biological target: human TLR7 (Homo sapiens (Human)); assay: TLR7 inhibition reporter assay (HEK-Blue, SEAP); conditions: HEK-Blue cells overexpressing human TLR7, gardiquimod 7.5 μM stimulation
Documented log10 IC50 across a set of compounds
A value of 2 here means IC50 of 100 in nM, since values are log10.

Cc1cc(-c2[nH]c3ccc(-c4nnc(C5CCCN(C(C)C)C5)o4)cc3c2C(C)C)ccn1 (stereo not drawn) [Example 312]    1.56
Cc1cc(-c2[nH]c3ccc(-c4nnc(C5CCNCC5)o4)cc3c2C(C)C)ccn1    1.72
Cc1cc(-c2[nH]c3ccc(-c4ccnc(N5CCNCC5)c4)cc3c2C(C)C)ccn1    1.65
CCN(CCN(C)C)C(=O)c1nnc(-c2ccc3[nH]c(-c4cc(C)nc(C)c4)c(C(C)C)c3c2)o1    1.00
COc1ccc(-c2[nH]c3ccc(-c4cccc(C(=O)N5CCCN(C)CC5)c4)cc3c2C(C)C)cc1OC    2.08

API: the following record is the query input.
Form: compound = COc1ccc(-c2[nH]c3ccc(-c4nnc(C(=O)N5CCC(N6CCOCC6)C5)o4)cc3c2C(C)C)cc1OC (stereo not drawn) ; log10 IC50 = 2.75

====

molecular target: human TLR7 (Homo sapiens (Human)); assay: TLR7 inhibition reporter assay (HEK-Blue, SEAP); conditions: HEK-Blue cells overexpressing human TLR7, gardiquimod 7.5 μM stimulation
Could you mark each record 1.0 if its IC50 falls strictly under 0.1 µM, and 0.0 if it equals or exceeds it?

COc1ccc(-c2[nH]c3ccc(-c4cccc(C(=O)N5CCN(C(=O)C6CCCO6)CC5)c4)cc3c2CC(F)(F)F)cc1OC (stereo not shown)    0.0
CC(C)c1c(-c2ccnc3[nH]ncc23)[nH]c2ccc(-c3nnc(CN4CCOCC4)o3)cc12    0.0
Cc1cc(-c2[nH]c3ccc(-c4nnc(CC(C)N)o4)cc3c2C(C)C)ccn1 (stereo not shown)    1.0
CC(C)c1c(-c2ccnc3[nH]ncc23)[nH]c2ccc(-c3nnc(C4CCCN(C)C4)o3)cc12 (stereo not shown) [Example 162]    1.0
Cc1cc(-c2[nH]c3ccc(-c4sc(C5CCNCC5)nc4C)cc3c2C(C)C)ccn1    1.0

Please turn your attention to the following entry.
**Query** IC50 strictly < 0.1 µM for this molecule? COc1ccc(-c2[nH]c3ccc(-c4nnc(C(=O)NC5CCN(C(C)C)CC5)o4)cc3c2C(C)C)cc1OC
**Result** 1.0

====

biological target: human TLR8 (Homo sapiens (Human), UniProt Q9NR97); experiment: TLR8 inhibition reporter assay (HEK-Blue, SEAP); settings: HEK-Blue cells overexpressing human TLR8, R848 15.9 μM stimulation
Lab note: class by IC50, see A (below 10 nM), B (10 nM to below 50 nM), C (50 nM or more)

Worked cases, answers included:
Cc1cc(-c2[nH]c3ccc(-c4cccnc4)cc3c2C(C)C)cc(C)n1    C
Cc1cc(-c2[nH]c3ccc(-c4cnc(N)cn4)cc3c2C(C)C)ccn1    A
CC(C)c1c(-c2ccnc(N)c2)[nH]c2ccc(-c3nnc(C(=O)N(C)C)o3)cc12    B
CCc1c(-c2ccc(OC)c(OC)c2)[nH]c2ccc(-c3noc([C@@H](N)CCCN)n3)cc12    C

**Query** Assign a category based on measured IC50 for Cc1cn2cc(-c3[nH]c4ccc(-c5ccc(N6CCN(C)CC6)nc5)cc4c3C(C)C)ccc2n1 and give only the class name.
**Result** C

**Query** Assign a category based on measured IC50 for Cc1cc(-c2[nH]c3ccc(-c4cc5c(s4)CN(CC(=O)N(C)C)CC5)cc3c2C(C)C)ccn1 and give only the class name.
**Result** B

**Query** Assign a category based on measured IC50 for Cc1cc(-c2[nH]c3ccc(-c4nnc(C5CCCNC5)[nH]4)cc3c2C(C)C)ccn1 (stereo not shown) [Example 178] and give only the class name.
**Result** B

**Query** Assign a category based on measured IC50 for Cc1cc(-c2[nH]c3ccc(-c4nnc(C5CN6CCC5CC6)o4)cc3c2C(C)C)cc(C)n1 (stereo not shown) [Example 296] and give only the class name.
**Result** A

**Query** Assign a category based on measured IC50 for CC(C)c1c(-c2ccnc3[nH]ncc23)[nH]c2ccc(-c3nnc(CN(C)C(C)C)o3)cc12 and give only the class name.
**Result** B

**Query** Assign a category based on measured IC50 for Cc1cc(-c2[nH]c3ccc(-c4cccc(C(=O)N5CC6CNCC6C5)c4)cc3c2C(C)C)ccn1 (stereo not shown) and give only the class name.
**Result** A

**Query** Assign a category based on measured IC50 for CC(C)c1c(-c2ccnc3[nH]ncc23)[nH]c2ccc(-c3nnc(C4CCNCC4)o3)cc12 and give only the class name.
**Result** B

**Query** Assign a category based on measured IC50 for COc1ccc(-c2[nH]c3ccc(-c4cc[nH]c4)cc3c2C(C)C)cc1OC and give only the class name.
**Result** C

**Query** Assign a category based on measured IC50 for CC(C)c1c(-c2ccnc3[nH]ncc23)[nH]c2ccc(-c3cc(N4CCC(N)CC4)ncn3)cc12 and give only the class name.
**Result** A

**Query** Assign a category based on measured IC50 for COc1ccc(-c2[nH]c3ccc(-c4ccc(CCCN5CCOCC5)cc4)cc3c2C(C)C)cc1OC and give only the class name.
**Result** C

**Query** Assign a category based on measured IC50 for COc1ccc(-c2[nH]c3ccc(-c4ccc(NC5CCCNC5)cc4)cc3c2C(C)C)cc1OC (stereo not shown) and give only the class name.
**Result** B

**Query** Assign a category based on measured IC50 for Cc1cc(-c2[nH]c3ccc(-c4nnc([C@@H]5CCCNC5)o4)cc3c2C(C)C)cc(C)n1 and give only the class name.
**Result** A
